The reported numbers originate from PubChem BioAssay (NCI).

TGI: recorded values
# System: NCI-H460 lung
# MEASUREMENT PROTOCOL: NCI tumour cell line growth inhibition, 48 h
A number alone suffices; assume µM.

(Q) Request the reported TGI associated with CCN(CC)/C(SCc1ccccc1)=C(\C(Cl)=C(Cl)Cl)[N+](=O)[O-]
(A) 55.1

Further cases:
(Q) Request the reported TGI associated with COC1=CC(=O)C(C2CC(=O)c3c(O)cc(O)cc3O2)=CC1=O (stereo unspecified)
(A) 51.8

(Q) Request the reported TGI associated with CN(C)c1ccc(C(=N/N=C2\C(=O)Nc3ccccc32)c2ccc(N(C)C)cc2)cc1
(A) 11.2

(Q) Request the reported TGI associated with OC(c1cc(-c2ccc(C(F)(F)F)cc2)nc(-c2ccc(C(F)(F)F)cc2)c1)C1CCCCN1 (stereo unspecified)
(A) 3.08

(Q) Request the reported TGI associated with CN1CSC(=S)N(c2c3ccccc3nc3ccc(Br)cc23)C1
(A) 13.6

(Q) Request the reported TGI associated with Cc1cc(N(CCOS(C)(=O)=O)CCOS(C)(=O)=O)ccc1C=O
(A) 6.35

(Q) Request the reported TGI associated with COc1ccc(/C=C(/C#N)n2nnc3cccc(F)c32)cc1
(A) 4.62

(Q) Request the reported TGI associated with O=C(CCc1nnc2sc(-c3ccc(Cl)cc3Cl)nn12)c1nc2ncccc2[nH]1
(A) 3.64
